These entries and their values trace back to ChEMBL document CHEMBL1147549.

system_name: Carboxypeptidase B (Homo sapiens, UniProt P15086)
Sequence (P15086 whole entry): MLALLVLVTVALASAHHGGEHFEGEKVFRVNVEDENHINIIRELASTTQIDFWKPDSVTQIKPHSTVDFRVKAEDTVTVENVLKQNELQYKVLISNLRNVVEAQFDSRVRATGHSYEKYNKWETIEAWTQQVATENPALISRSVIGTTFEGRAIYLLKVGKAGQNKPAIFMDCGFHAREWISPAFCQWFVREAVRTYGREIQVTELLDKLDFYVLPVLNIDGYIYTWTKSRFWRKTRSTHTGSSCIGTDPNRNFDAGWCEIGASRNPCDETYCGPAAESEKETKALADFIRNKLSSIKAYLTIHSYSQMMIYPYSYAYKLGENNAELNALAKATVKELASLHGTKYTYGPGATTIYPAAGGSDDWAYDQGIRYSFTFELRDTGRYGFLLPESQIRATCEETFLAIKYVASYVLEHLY
readout_kind: pIC50
One number for each entry, as −log10 of the molar value.

Problem: Would you kindly share the measured pIC50 for CC(CN)CCC(C(=O)O)c1cnc[nH]1 (stereo unspecified) ?
Result: 5.82
